tested on: A498 complex spheroid viability; experiment: Anticancer human tumor A498 cell line growth inhibition; conditions: second compound 0.316 µM; first compound 0.316 µM; stronger effect = lower value;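 further: spheroids exposed to agents for seven days before readout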;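 on viability, T/C: 100% = DMSO vehicle-treated spheroids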
Attribute measured: viability, T/C (%)

# Molecule, Attribute measured, Quantitative result
records = [
    ("O=C(C=Cn1cnc(-c2cc(C(F)(F)F)cc(C(F)(F)F)c2)n1)NNc1cnccn1 + NC1CCC(NC2CC2c2ccccc2)CC1", "viability, T/C", 24.1),
    ("O=C(C=Cn1cnc(-c2cc(C(F)(F)F)cc(C(F)(F)F)c2)n1)NNc1cnccn1 + NC1CC1c1ccc(-c2cccc(O)c2)cc1", "viability, T/C", 25.8),
    ("CC(C)c1c(-c2ccccc2)nc2c(C#N)c[nH]n2c1=O + NC1CCC(NC2CC2c2ccccc2)CC1", "viability, T/C", 87),
    ("COc1cc(Nc2ncc3c(n2)-c2ccc(Cl)cc2C(c2c(F)cccc2OC)=NC3)ccc1C(=O)O + NC1CC1c1ccc(-c2cccc(O)c2)cc1", "viability, T/C", 52.1),
]

* * *

system: A498 complex spheroid viability; assay: Anticancer human tumor A498 cell line growth inhibition; conditions: second compound 0.316 µM; first compound 0.949 µM; stronger effect = lower value;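 further: spheroids exposed to agents for seven days before readout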;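 on viability, T/C: 100% = DMSO vehicle-treated spheroids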
Attribute measured: viability, T/C (%)

# Compound, Attribute measured, Quantitative result
measured = [
    ("NS(=O)(=O)OCC1CC(n2ccc3c(NC4CCc5ccccc54)ncnc32)CC1O (stereo unspecified) + NC1CC1c1ccc(-c2cccc(O)c2)cc1", "viability, T/C", 15.6),
    ("COc1cc(C2c3cc4c(cc3C(OC3OC5COC(C)OC5C(O)C3O)C3COC(=O)C23)OCO4)cc(OC)c1O (stereo unspecified) + NC1CCC(NC2CC2c2ccccc2)CC1", "viability, T/C", 59.6),
    ("CCN(c1cc(-c2ccc(CN3CCOCC3)cc2)cc(C(=O)NCc2c(C)cc(C)[nH]c2=O)c1C)C1CCOCC1 + NC1CCC(NC2CC2c2ccccc2)CC1", "viability, T/C", 92.4),
    ("NS(=O)(=O)OCC1CC(n2ccc3c(NC4CCc5ccccc54)ncnc32)CC1O (stereo unspecified) + NC1CCC(NC2CC2c2ccccc2)CC1", "viability, T/C", 17.8),
    ("Nc1ccccc1NC(=O)c1ccc(CNC(=O)OCc2cccnc2)cc1 + NC1CCC(NC2CC2c2ccccc2)CC1", "viability, T/C", 17),
    ("Nc1ccccc1NC(=O)c1ccc(CNC(=O)OCc2cccnc2)cc1 + NC1CC1c1ccc(-c2cccc(O)c2)cc1", "viability, T/C", 21.1),
]

* * *

System: A498 complex spheroid viability
Assay: Anticancer human tumor A498 cell line growth inhibition;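 further: spheroids exposed to agents for seven days before readout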
Details: curve of first compound; second compound 0.1 µM
Excerpt: Multicellular complex tumor spheroid response to LSD1 Inhibitor Iadademstat in combination with a variety of drugs and investigational agents in selected tumor cell lines The current study was undertaken to assess response to LSD1 inhibitors in combination with standard-of-care drugs and investigational agents in solid tumor complex spheroid models as well as in the K-562 leukemia. […] Compounds. […] If the clinical Cmax for an agent had not been determined, the highest concentration tested was 10 microM. […]
pIC50: −log10 of the molar value.
Class 1: pIC50 at least 7. Class -1: pIC50 below 7.

# Compound, Label
measured = [
    ("Cn1ncnc1C1c2n[nH]c(=O)c3cc(F)cc(c23)NC1c1ccc(F)cc1 (stereo unspecified) + NC1CCC(NC2CC2c2ccccc2)CC1", -1),
    ("CCN(c1cc(-c2ccc(CN3CCOCC3)cc2)cc(C(=O)NCc2c(C)cc(C)[nH]c2=O)c1C)C1CCOCC1 + NC1CC1c1ccc(-c2cccc(O)c2)cc1", -1),
    ("CC1(C)CCC(CN2CCN(c3ccc(C(=O)NS(=O)(=O)c4ccc(NCC5CCOCC5)c([N+](=O)[O-])c4)c(Oc4cnc5[nH]ccc5c4)c3)CC2)=C(c2ccc(Cl)cc2)C1 + NC1CCC(NC2CC2c2ccccc2)CC1", -1),
    ("CC(C)CC(NC(=O)CNC(=O)c1cc(Cl)ccc1Cl)B1OC(=O)CC(CC(=O)O)(C(=O)O)O1 (stereo unspecified) + NC1CC1c1ccc(-c2cccc(O)c2)cc1", 1),
    ("CC(C)CC(NC(=O)C(Cc1ccccc1)NC(=O)c1cnccn1)B(O)O (stereo unspecified) + NC1CC1c1ccc(-c2cccc(O)c2)cc1", 1),
    ("O=C(c1cc(Cc2n[nH]c(=O)c3ccccc23)ccc1F)N1CCN(C(=O)C2CC2)CC1 + NC1CCC(NC2CC2c2ccccc2)CC1", -1),
    ("Nc1ncn(C2CC(O)C(CO)S2)c(=O)n1 (stereo unspecified) + NC1CC1c1ccc(-c2cccc(O)c2)cc1", -1),
    ("Nc1ncn(C2CC(O)C(CO)O2)c(=O)n1 (stereo unspecified) + NC1CC1c1ccc(-c2cccc(O)c2)cc1", -1),
    ("CC(C)CC(NC(=O)C(Cc1ccccc1)NC(=O)c1cnccn1)B(O)O (stereo unspecified) + NC1CCC(NC2CC2c2ccccc2)CC1", 1),
    ("O=C(C=Cn1cnc(-c2cc(C(F)(F)F)cc(C(F)(F)F)c2)n1)NNc1cnccn1 + NC1CC1c1ccc(-c2cccc(O)c2)cc1", 1),
    ("CC1COCCN1c1cc(-c2ccnn2C)c2ccnc(-c3ccn[nH]3)c2n1 (stereo unspecified) + NC1CC1c1ccc(-c2cccc(O)c2)cc1", 1),
    ("CC1COCCN1c1cc(C2(S(C)(=N)=O)CC2)nc(-c2ccnc3[nH]ccc23)n1 (stereo unspecified) + NC1CC1c1ccc(-c2cccc(O)c2)cc1", -1),
    ("CCN(c1cc(-c2ccc(CN3CCOCC3)cc2)cc(C(=O)NCc2c(C)cc(C)[nH]c2=O)c1C)C1CCOCC1 + NC1CCC(NC2CC2c2ccccc2)CC1", -1),
    ("COc1cc(C2c3cc4c(cc3C(OC3OC5COC(C)OC5C(O)C3O)C3COC(=O)C23)OCO4)cc(OC)c1O (stereo unspecified) + NC1CCC(NC2CC2c2ccccc2)CC1", -1),
    ("CC(C)c1c(-c2ccccc2)nc2c(C#N)c[nH]n2c1=O + NC1CCC(NC2CC2c2ccccc2)CC1", -1),
    ("O=C(C=Cc1cccc(S(=O)(=O)Nc2ccccc2)c1)NO + NC1CCC(NC2CC2c2ccccc2)CC1", -1),
    ("Cn1ncnc1C1c2n[nH]c(=O)c3cc(F)cc(c23)NC1c1ccc(F)cc1 (stereo unspecified) + NC1CC1c1ccc(-c2cccc(O)c2)cc1", -1),
    ("CC[C@@]1(O)C(=O)OCc2c1cc1n(c2=O)Cc2cc3c(CN(C)C)c(O)ccc3nc2-1 + NC1CCC(NC2CC2c2ccccc2)CC1", 1),
    ("COc1cc(C2c3cc4c(cc3C(OC3OC5COC(C)OC5C(O)C3O)C3COC(=O)C23)OCO4)cc(OC)c1O (stereo unspecified) + NC1CC1c1ccc(-c2cccc(O)c2)cc1", -1),
    ("Nc1ncn(C2CC(O)C(CO)O2)c(=O)n1 (stereo unspecified) + NC1CCC(NC2CC2c2ccccc2)CC1", -1),
]
